Quick reference: polymerase ribozyme fitness (log ratio) of the listed items.
B1: TPR t1 (parent)
chain: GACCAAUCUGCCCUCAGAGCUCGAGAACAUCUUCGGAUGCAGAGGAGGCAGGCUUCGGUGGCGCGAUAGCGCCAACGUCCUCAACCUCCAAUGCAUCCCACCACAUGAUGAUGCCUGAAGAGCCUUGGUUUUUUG

Variants of: B1
protocol_summary: polymerase ribozyme fitness, log enrichment relative to wild type (log ratio); higher = more active; in vitro selection for triplet polymerase activity
Just the number.

{"columns": ["variant_identifier", "recorded_value"],
 "data": [
  ["G19U G120U", -2.46],
  ["A37G C115U", -0.85]
]}

QUERY: Please supply the value of reported polymerase ribozyme fitness (log ratio) for the item C11U G61A U112C
RESULT: 1.14

QUERY: Please supply the value of reported polymerase ribozyme fitness (log ratio) for the item G19A G63C C76A G93A G110C
RESULT: -5.44
